The values you see were collected from patent US20250019450A1.

TARGET_ENTITY: T1, human IL-12Rβ1-his (Acro Biosystems), biotinylated (human, UniProt P42701 24-545, biotinylated)
T1 construct: bought; captured on Neutravidin in the ELISA; also called Bio-huIL-12Rβ1-His
PROTOCOL_NOTES: ELISA, periplasmic extract
VALUE_TYPE: OD450 nm
The answer should be written as a number, with no unit following it.

Param item = VHH154B1 (VHH) VHH: QVQLQESGGGLVQVGDSLRLSCVASGRIFGVNTRAWYRQAPGNQRELVAQISSGGNINYADSVKGRFTISMDKFTDTVYLQMNSLKPEDTAIYRCAAHRQHPYADVWGQGTQVSVSS ; retrieve measured OD450 nm.
2.85

Then what about the binder VHH136B1 (VHH) VHH: QVQLQESGGGLVQAGGSLRLSCAAPGRYAVGWFRQAPGKEYEFVAAITVSGGSKYYEDSVKGRFTISRDNAKNTVYLEMNSLKAEDTAVYYCAARTPKFGSGWYNRRGEYDYWGQGTQVTVSS ?
2.84
